This collection of values is drawn from paper PMC5717350.

- targetOfAssay: T1, AND-1CT (human, UniProt O75717 837-1129)
- T1 sequence: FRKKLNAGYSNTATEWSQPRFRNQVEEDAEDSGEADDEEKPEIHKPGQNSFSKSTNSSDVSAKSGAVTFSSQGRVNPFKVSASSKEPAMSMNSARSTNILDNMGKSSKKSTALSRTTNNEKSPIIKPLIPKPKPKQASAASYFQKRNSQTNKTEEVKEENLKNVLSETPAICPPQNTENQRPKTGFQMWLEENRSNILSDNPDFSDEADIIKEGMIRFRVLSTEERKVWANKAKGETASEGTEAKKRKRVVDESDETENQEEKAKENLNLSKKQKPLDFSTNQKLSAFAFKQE
- runDescription: fluorescence anisotropy; FP: 25 mM HEPES pH 7.2, 100 mM KCl, 0.5 mM TCEP, 20 nM DNA, 25 C; EMSA: 25 mM HEPES pH 7.2, 100 mM KCl, 5 mM MgCl2, TCEP, 3 uM DNA, 0.75% (so in the source) agarose gel in 0.5x Tris-borate pH 8.3, 4 C
- experimentalParameters: protein: recombinant; tags: none (His6-MBP removed by TEV); label: 5' 6FAM; single strand
metricName: Kd

Q: Give the measured Kd of CTTCCGAGACCTTGCCCATCCCGTAGAACCTGTTATCCAA (ssDNA) [ssDNA 40mer (oligo A)] .
Ans: ~800 nM
